Values were extracted from patent US8440836B2.

Overview of reported efficacy across a group of compounds:
Test system: Blumeria graminis f.sp. hordei
test_details: Blumeria graminis test (barley)/protective
Format: in vivo
settings: barley plants, protective spray, 500 ppm active ingredient, evaluation 7 days after inoculation

| compound | result_units | efficacy |
| --- | --- | --- |
| CC(C)(C)C(O)(COc1ccc(I)cc1)c1cncs1 (centres unmarked) | % | 100 |
| CC(CF)(CF)C(O)(COc1ccc(I)cc1)c1cncs1 (centres unmarked) | % | 100 |
| CC(CF)(CF)C(O)(COc1ccc(Br)cc1)c1cncs1 (centres unmarked) | % | 89 |
| CC(C)(C)C(O)(COc1ccc(Br)cc1)c1cncs1 (centres unmarked) | % | 100 |
| OC(Cc1cnc(I)s1)(Cc1ccccc1Cl)C1(Cl)CC1 (centres unmarked) | % | 90 |
| OC(Cc1ccccc1Cl)(c1cncs1)C1(F)CC1 (centres unmarked) | % | 78 |
| CC1(C(O)(COc2ccc(Br)cc2)c2cncs2)CCCCC1 (centres unmarked) | % | 89 |
| CO/N=C/c1ccc(OCC(O)(c2cncs2)C(C)(C)C)cc1 (centres unmarked) | % | 100 |
| CC(C)(C)C(O)(COc1ccc(F)cc1)c1cncs1 (centres unmarked) | % | 100 |
| OC(Cc1cncs1)(Cc1ccccc1Cl)C1(Cl)CC1 (centres unmarked) | % | 100 |
| CC(C)(C)C(O)(COc1ccc(OC(F)(F)F)cc1)c1cncs1 (centres unmarked) | % | 100 |
